Attribution: the nanobody polyreactivity screen of Harvey et al. (2022)

TEST METHOD NOTES: yeast display, Sf9 membrane polyspecificity reagent, FACS + sequencing; frameworks hold sequencing errors
READOUT TYPE: polyreactivity (PSR sort gate)

Example entries begin here.
QVQLVESGGGLVQAGGSLRLSCAASGSIFAVYAMGWYRQAPGKERELVAVITRSGGSTYYADSVKGRFTISRDNAKNTVYLQMISLKPEDTAVYYCAARTGYGYTRYEYWGQGTQVTVSS : high polyreactivity
QVQLVQSGGGLVQAGGSLRLSCAASGGIFRTNPMGWYRQAPGQERALVATISRRGGSTYYADSVKGRFTISRDNAKNTVYFQMNSLKPEDTAVYYCAVEWYYTSNHIRFYRDNYWGQGTQVTVSS : high polyreactivity
QVQLVESGGGLVQAGGSLRLSCAASGRIFASNAMGWYRPAPGKERELVAAIDQGGGSTYYADSVKGRFTISRDNAKNTVYLQMNSLKPEDTAVYYCAADYITAYPRLYNYWGQGTQVTVSS : low polyreactivity
QVQLVESGGGLVQAGGSLRLSCAASGRTFVGYVMGWDRQAPGKERELVAAISTSGGRTYYADSVKGRFTISRDNAKNTGYLQMNSLKPEDTAVYYCNAVSKQPIGYEYWGQGSQVTVSS : high polyreactivity
QVQHVESGGGLVQAGGSLRLSCAASGRIFQHYPMGSYRQAPGKETEFVAAISSSSGSTYADSVKGRFTISRDNAKNTVYLQMNSLNPEDTAVYYCNRDYMPFKFYGGSHDMEYWGQGTQVTVSS : low polyreactivity
QVQLVESGGGLVQAGVSLRLSCAASGNIFRAYAMGWYRQAPGKERELVAAIDTTGGRTYYADSVKGRFTISRDNAKITVYLLMKSLKPEDTAVYYCAVRAPAYPYYRGFDYWGQGSQVTVSS : low polyreactivity
QVQLVESGGGLVQAGGSLRLSCAASGRIFYYAMGWYRQAPGKERELVAVITYSGGNTYYADSVKGRFTISRDNAKNTVYLQMNSLKPEDTAVYYCAKAVSTKISRYYHYYKHYDYWGQGTQVTVSS : low polyreactivity
QVQLVESGAGLVQAGGSLRLSCAASGSTLVFYTMGWYRQAPGKERELVAAISYSGGRTYYADSVKGRFTISRDNAKNTVYLQMNSLKPEDTAVYYCAAVGRSYNRISQYDYWGQGTQVTVSS : high polyreactivity
QVQLEESGGGLVQAGGSLRLSCAASGSTFNDYAMGRYRQAPGKERELVAAISSSGGITYYADSVKGRFTISRDNAKNTVYLQMNSLKPEDTEVYYCAASGRDWSWYDYWGQGTQVTVSS : low polyreactivity
QFQLVESGGGLVQAGGSLRLSCAASGSIFGPYAMGWYRQAPGKEREFVAAISRSGTRTNFADSVKGSFTISRDSAKNTVYLQMNSLKPEDTAVYYCATAAFIVGTSRTYDYWGQGTQVTVSS : high polyreactivity

Inquiry: Entry "QVQLVESGGGLVQAGGSLRLSCAASGFIYGPNAMGWYRQAPGKERELVAAISYSGGRTYYADSVKGRFTISRDNAKNTVYLQLISLKPEDSAVYYCAAERKIKYDYWGQGTQVTVSS" : reported polyreactivity (PSR sort gate) = ?
Reply text: high polyreactivity

---

TEST METHOD NOTES: yeast display, Sf9 membrane polyspecificity reagent, FACS + sequencing; frameworks hold sequencing errors
READOUT TYPE: polyreactivity (PSR sort gate)

Below are worked cases with known answers.
QVQLVESGGGLVQAGGSLRLSCAASGITFRYYAMGWYSQAPGKERELVAAITRGGRTNYADSVKGRYTISRDNAKNTVYLQMNSLKPEDTAVYYCAAGRVGRLSEYNYWGQGTQVTVSS : high polyreactivity
QVQLVESAGGLVQAGGSLRVSCAASGSTFSRYTMGWYRQAPGKERELVAAIRWSSGRTYYADSVKGRFTISRDNAKNTVYLQMNSLKPEDTAVYYCAALFPRGQADYAYWGQGTPVTVSS : high polyreactivity
QVQLVESGGGLVQAGGSLRLSCAASGSIFTSYAMGWYRQAPGKERELVAAIDWSGGTTYYADSVKGRFTISRDNAKNPVYLQMNSLKPEDTAVYNRAADIYKYTVGSYDYWGQGTQVTVSS : low polyreactivity
QVQLVESGGGLVQAGGSLRLSCAASGSTIDTYAMGWYRQAPGKERELVAGISWSGGSTFYADSVKGRFTISRDNAKNTVYLQMNSLKPEDTAVYYCAKQLWVGVKYDYWGQGTQVTVSS : low polyreactivity

Inquiry: Please report the recorded polyreactivity (PSR sort gate) for "QVHLVESGGGLVQARGSLRLSCAASGSIFRNYAMGWYRQAPGKERELLATISGRGGRTYYADSVKGRFTISRDNAKNTVYLQMNSLKPEDTAVYYCAARGTLGKYSTATVYWGKGTQVTVSS" .
Reply text: high polyreactivity
